- study_system: UniProt:Q7Z2W7
- Sequence (Q7Z2W7 whole entry): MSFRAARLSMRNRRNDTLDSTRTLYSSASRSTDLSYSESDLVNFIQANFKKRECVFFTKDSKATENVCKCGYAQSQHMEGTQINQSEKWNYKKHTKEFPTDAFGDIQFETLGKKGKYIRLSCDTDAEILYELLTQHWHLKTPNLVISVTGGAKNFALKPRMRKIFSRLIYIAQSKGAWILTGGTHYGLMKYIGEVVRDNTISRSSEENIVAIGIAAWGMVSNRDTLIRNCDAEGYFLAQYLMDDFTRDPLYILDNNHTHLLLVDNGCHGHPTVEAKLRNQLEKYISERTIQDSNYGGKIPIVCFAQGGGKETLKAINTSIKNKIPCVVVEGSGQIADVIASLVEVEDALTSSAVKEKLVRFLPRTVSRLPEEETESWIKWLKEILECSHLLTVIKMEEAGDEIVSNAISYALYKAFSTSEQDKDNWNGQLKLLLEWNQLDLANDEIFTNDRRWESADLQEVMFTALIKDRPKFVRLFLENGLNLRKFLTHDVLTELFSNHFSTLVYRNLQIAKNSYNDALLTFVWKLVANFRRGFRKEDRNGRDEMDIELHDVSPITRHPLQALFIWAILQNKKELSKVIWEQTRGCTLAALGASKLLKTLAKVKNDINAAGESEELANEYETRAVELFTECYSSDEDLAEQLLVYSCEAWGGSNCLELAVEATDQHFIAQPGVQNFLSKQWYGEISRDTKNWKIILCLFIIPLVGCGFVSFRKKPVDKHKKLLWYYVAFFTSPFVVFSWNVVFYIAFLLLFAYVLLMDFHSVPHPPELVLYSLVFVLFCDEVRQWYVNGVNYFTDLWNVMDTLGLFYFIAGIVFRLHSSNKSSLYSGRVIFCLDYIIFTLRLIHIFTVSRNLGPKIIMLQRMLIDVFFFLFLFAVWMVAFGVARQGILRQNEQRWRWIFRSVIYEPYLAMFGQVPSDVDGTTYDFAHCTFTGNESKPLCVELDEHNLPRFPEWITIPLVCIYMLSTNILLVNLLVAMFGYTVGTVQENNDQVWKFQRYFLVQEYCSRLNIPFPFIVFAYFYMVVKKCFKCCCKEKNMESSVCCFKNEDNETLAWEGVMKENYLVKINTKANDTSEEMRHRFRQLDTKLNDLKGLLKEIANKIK
- measurement_description: Inhibition of human TRPM8 expressed in HEK293 cells assessed as reduction in ethyl 4-methoxy-2-phenylthiazole-5-carboxylate induced Ca2+ efflux preincubated for 5 mins followed by ethyl 4-methoxy-2-phenylthiazole-5-carboxylate addition and measured for 3 mins by FLIPR assay
- Assay type: cell-based
measure_name: IC50

Known results for compounds:
| smi | measured_result |
| --- | --- |
| CCOC(=O)c1ccc(-c2cccc(F)c2)cc1O | > 100 µM |
| Oc1nc(-c2cccc(F)c2)sc1-c1nn[nH]n1 | > 100 µM |
| CCOC(=O)c1oc(-c2ccc(Cl)cc2)nc1O | > 100 µM |

Suppose we examine the compound `CCOC(=O)Cc1sc(-c2ccccc2)nc1O` ; what IC50 value has been reported? 0.95 µM

Suppose we examine the compound `O=C(c1sc(-c2cccc(F)c2)nc1O)N1CCCOC1` ; what IC50 value has been reported? > 100 µM

Suppose we examine the compound `CCn1nnc(-c2sc(-c3c(Cl)cccc3Cl)nc2O)n1` ; what IC50 value has been reported? 16.5 µM

Suppose we examine the compound `CCn1nnc(-c2sc(-c3cccc(O)c3)nc2O)n1` ; what IC50 value has been reported? 0.239 µM

Suppose we examine the compound `COC(=O)c1nc(-c2ccccc2)sc1O` ; what IC50 value has been reported? > 100 µM

Suppose we examine the compound `CCOC(=O)c1cnc(-c2ccccc2)s1` ; what IC50 value has been reported? > 100 µM

Suppose we examine the compound `CCNC(=O)c1sc(-c2ccccc2)nc1O` ; what IC50 value has been reported? > 100 µM
